# testedOn: Cytochrome P450 1A2 (Homo sapiens)
# Sequence (P05177 whole entry): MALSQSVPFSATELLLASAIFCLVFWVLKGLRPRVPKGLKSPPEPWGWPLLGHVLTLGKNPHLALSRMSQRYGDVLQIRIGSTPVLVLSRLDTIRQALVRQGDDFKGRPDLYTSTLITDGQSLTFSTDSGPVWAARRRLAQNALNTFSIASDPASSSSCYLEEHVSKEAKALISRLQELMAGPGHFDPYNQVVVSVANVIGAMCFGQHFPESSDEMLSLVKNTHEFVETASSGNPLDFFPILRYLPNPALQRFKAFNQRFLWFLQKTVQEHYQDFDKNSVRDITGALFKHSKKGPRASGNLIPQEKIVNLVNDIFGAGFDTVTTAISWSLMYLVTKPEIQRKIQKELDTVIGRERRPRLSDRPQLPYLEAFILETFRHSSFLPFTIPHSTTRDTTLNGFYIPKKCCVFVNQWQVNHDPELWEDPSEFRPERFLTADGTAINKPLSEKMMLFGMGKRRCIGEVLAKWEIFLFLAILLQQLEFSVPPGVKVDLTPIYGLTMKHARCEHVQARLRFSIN
pIC50: −log10 of the molar value.
parameterMeasured: pIC50

Clc1ccc([C@@]23CNC[C@@H]2[C@H]3COCC2CC2)cc1Cl (stereo in doubt)    < 5.00
Clc1ccc([C@@]2(COC3CCC3)[C@@H]3CNC[C@@H]32)cc1Cl    < 5.00
COC[C@@H]1[C@H]2CNC[C@]21c1ccc2ccccc2c1 (stereo in doubt)    6.05
COC[C@H]1[C@@H]2CNC[C@@]21c1ccc(Cl)c(Cl)c1 (relative stereo)    < 5.22
CCOC[C@H]1[C@@H]2CNC[C@@]21c1ccc(Cl)c(Cl)c1 (relative stereo)    < 5.05
CC(C)OC[C@@H]1[C@H]2CNC[C@]21c1ccc(Cl)c(Cl)c1 (stereo in doubt)    < 5.10
CCOC[C@H]1[C@@H]2CNC[C@@]21c1ccc(Cl)c(Cl)c1    < 5.05
Clc1ccc([C@@]2(COCC3CC3)[C@@H]3CNC[C@@H]32)cc1Cl    < 5.00
